Every entry's value here was drawn from PubChem BioAssay (NCI).

- Test system: SW-620 colon
- ASSAY_NOTES: NCI tumour cell line growth inhibition, 48 h
Measured TGI of individual entries
PARAMETER_MEASURED: TGI

compound="CSc1nc(NC2OC(COC(C)=O)C(OC(C)=O)C(OC(C)=O)C2OC(C)=O)c(N=CC=Nc2c(NC3OC(COC(C)=O)C(OC(C)=O)C(OC(C)=O)C3OC(C)=O)nc(SC)[nH]c2=O)c(=O)[nH]1 (stereo not drawn)" result="> 100 µM"
compound=CC(C)Oc1ccc(-c2nn([C@@H](C)c3oc4ccc(F)cc4c(=O)c3-c3cccc(F)c3)c3ncnc(N)c23)cc1F result="> 100 µM"
compound=C[CH2][Pb]([CH2]C)([CH2]C)[O]C(=O)COC result="1.33 µM"

====

Measured TGI of individual entries
- Tested on: OVCAR-8 ovarian
- ASSAY_NOTES: NCI tumour cell line growth inhibition, 48 h
PARAMETER_MEASURED: TGI

compound=CC(=O)N/C=C/c1cc(O)ccc1O parameter_measured=TGI result="> 85.9 µM"
compound="COC(=O)C1[C@@H](C(=O)OC)C(=O)O[C@H]1c1cc(OC)c(OC)c(OC)c1 (stereo partly specified)" parameter_measured=TGI result="> 100 µM"
compound="CCOC(=O)N1CCN(P(=O)(Nc2ccc3nc(NC(=O)OC)[nH]c3c2)Oc2ccccc2)CC1 (stereo unspecified)" parameter_measured=TGI result="> 100 µM"
compound=O=C1OCCC1(Cc1ccc(Cl)cc1)Cc1ccc(Cl)cc1 parameter_measured=TGI result="> 100 µM"
compound="Nc1ncnc2c1ncn2C1CC(O)C(CO)O1 (stereo unspecified)" parameter_measured=TGI result="> 100 µM"
compound="O=C(Nc1nnc(-c2ccc(Cl)cc2)o1)C(SC(=S)N1CCCCC1)c1ccccc1 (stereo unspecified)" parameter_measured=TGI result="> 100 µM"

====

Measured TGI of individual entries
- Test system: SNB-75 CNS
- ASSAY_NOTES: NCI tumour cell line growth inhibition, 48 h
Where a SMILES comes first, the peptide text is derived from it.
PARAMETER_MEASURED: TGI

compound=NCCCCCn1c2c(c3ccccc3c1=O)C(=O)c1ccccc1-2 result="6.92 µM"
compound="CCC1=C(C(C)=O)[C@@H]2CCCCC(C(=O)OC)[C@@H]2C1=O (some centres undefined)" result="> 100 µM"
compound="CCOC(OC1=C(C#N)CCC1)C(C)[Se]c1ccccc1 (centres undefined)" result="77.9 µM"
compound=Cn1cc(-c2csc(-c3c[nH]c4ccccc34)n2)c2cnccc21 result="26.2 µM"
compound=C[CH2][Sn]([CH2]C)([O]C(=O)c1c(F)cccc1F)[O][Sn]([CH2]C)([CH2]C)[O]C(=O)c1c(F)cccc1F result="29.7 µM"
compound="CCC(C)C(NC(=O)C(NC(=O)C(CC(N)=O)NC(=O)CN)C(C)O)C(=O)NC(C(=O)NC(C)C(=O)NC(C(=O)NC(CCC(=O)O)C(=O)NC(CC(C)C)C(=O)NC(CC(=O)O)C(=O)NC(C(=O)NC(Cc1ccc(O)cc1)C(=O)N1CCCC1C(=O)O)C(C)O)C(C)C)C(C)C (centres undefined) (H-GNTIVAVELDTYP-OH; configuration not given here)" result="> 50 µM"
compound=COc1cc(OC)c(/C=C/c2cc[n+](C)c3ccccc23)c(OC)c1 result="11.2 µM"
compound=COc1ccc(C(=S)N(C)NC(=O)CC(=O)NN(C)C(=S)c2ccc(OC)cc2)cc1 result="> 100 µM"
compound=O=c1c(=O)c2cscc2c1=O result="8.37 µM"
compound=Cc1ccccc1NC(=O)C(=O)c1c(O)c2ccc(O)cc2oc1=O result="> 100 µM"
compound="CC(C)NC(C)C(C)c1ccccc1 (centres undefined)" result="> 100 µM"
compound="COc1ccc(/C=C/C2C(C#N)=C(N)OC3=C2C(=O)CCC3)cc1 (centres undefined)" result="37.4 µM"
compound="CC1(C)Oc2ccccc2OC1O (centres undefined)" result="> 100 µM"
compound=Cc1cccc2c(NCCCN(C)C)c3c([N+](=O)[O-])ccc(C)c3nc12 result="0.491 µM"
compound="Fc1cccc(C2SCC3=Nc4ccccc4CN32)c1 (centres undefined)" result="> 100 µM"
compound=COc1ccc(-c2nc(Sc3c([N+](=O)[O-])ncn3C)n[nH]2)cc1 result="> 100 µM"
compound="N#CC1CCCC2SC(F)(F)C(F)(F)C12 (centres undefined)" result="> 100 µM"
compound=C=CCc1cccc2cc(C(=O)NC3CCCCC3)c(=N)oc12 result="35 µM"
compound=Cc1nc2c(=O)[nH]ncc2[nH]1 result="> 100 µM"
compound="Cc1ccc(C2CC(c3cccc([N+](=O)[O-])c3)=Nc3ccccc3S2)cc1 (centres undefined)" result="> 96.1 µM"
compound=CCCCCCCCCCCCCC(=O)NCO result="> 100 µM"
compound=O=C(O)c1ccc(NCc2nc3cc(Cl)c(Cl)cc3[nH]2)cc1 result="> 100 µM"
compound="CC1=CC2C(=O)N(c3ccccc3)C(=O)C2CC1n1[nH]c(=O)n(Cc2ccccc2)c1=O (centres undefined)" result="> 100 µM"
compound="O=C(OCC1OC(n2cc(C(F)(F)F)c(=O)[nH]c2=O)CC1OC(=O)c1ccc([N+](=O)[O-])cc1)c1ccc([N+](=O)[O-])cc1 (centres undefined)" result="> 100 µM"
compound="Cc1c2c(n(C)c1C)C(=O)C1C(C2=O)C2(C)c3ccccc3C1(C)c1ccccc12 (centres undefined)" result="> 100 µM"
compound="Cc1cccc(C)c1NC(=O)C(=O)C(C#N)c1ccccc1 (centres undefined)" result="> 100 µM"
compound=COc1cc(C(=O)N(C)N(C)C)cc(OC)c1OC result="> 10 µM"
compound="c1ccc2nc(N/N=C3\\CCCCC3C3CCCCC3)ccc2c1 (centres undefined)" result="30.9 µM"
compound="O=S(=O)(c1ccccc1)n1c(C(O)c2ccccc2)cc2ccccc21 (centres undefined)" result="35.7 µM"

====

Measured TGI of individual entries
- Tested on: HCT-15 colon
- ASSAY_NOTES: NCI tumour cell line growth inhibition, 48 h
PARAMETER_MEASURED: TGI

molecular_string=COc1cc2c3c(n(CCCNC4=NCCS4)c(=O)c2cc1OC)-c1cc2c(cc1C3=O)OCO2 result="3.67 µM"
molecular_string=CCCCCCCCCCCC[C@@H](O)[C@H]1CC[C@H]([C@H]2CC[C@H]([C@H](O)CC[C@H](O)CCCCCCCC3=C[C@H](C)OC3=O)O2)O1 result="4.33 µM"
molecular_string=CC(=O)/C=c1\[nH]/c(=C\C=C\c2ccccc2)c(=O)n1/C=C1\C(=O)Oc2ccccc2C1=O result="> 100 µM"
molecular_string=O=C1Nc2c(Cl)cc(Cl)cc2C1=O result="47.5 µM"
molecular_string=CCn1c2ccccc2c2cc(N=Nc3ccc(C#N)cc3)ccc21 result="> 100 µM"
molecular_string=Nc1c(C(=O)c2cccc(OC[C@@H](O)CO)c2)cnn1-c1ccc(F)cc1 result="> 25 µM"
molecular_string=Cc1nc2c(=O)[nH]ncc2[nH]1 result="> 100 µM"

====

- Tested on: SK-MEL-28 melanoma
- ASSAY_NOTES: NCI tumour cell line growth inhibition, 48 h
Measured TGI of individual entries
PARAMETER_MEASURED: TGI (µM)

compound=COc1cc(OC)c(/C=C/c2cc[n+](C)c3ccccc23)c(OC)c1 study_system="SK-MEL-28 melanoma" parameter_measured=TGI comparison_symbol== readout_number=9.77
compound=O=C1Nc2c(Cl)cc(Cl)cc2C1=O study_system="SK-MEL-28 melanoma" parameter_measured=TGI comparison_symbol== readout_number=35.4
compound=COc1cc2c(cc1OCCCN1CCN(C)CC1)N=C[C@@H]1CCCN1C2=O study_system="SK-MEL-28 melanoma" parameter_measured=TGI comparison_symbol== readout_number=3.97
compound="O=S1OC[C@H](CCCl)O1 (stereo not given in full)" study_system="SK-MEL-28 melanoma" parameter_measured=TGI comparison_symbol=> readout_number=100
compound=Cc1oc2c(C(=O)N/N=C\c3ccc(O)cc3O)c[nH]c2c1C study_system="SK-MEL-28 melanoma" parameter_measured=TGI comparison_symbol=> readout_number=41.7

====

- System: 786-0 renal
- ASSAY_NOTES: NCI tumour cell line growth inhibition, 48 h
Measured TGI of individual entries
PARAMETER_MEASURED: TGI (µM)

molecule="COC1/C(=C\\c2ccccc2I)c2ccccc2N1C(C)=O (configuration not stated)" study_system="786-0 renal" comparison_symbol== readout_number=33.3
molecule="O=C(CN1CCN(c2cccc(Cl)c2)CC1)N1CCc2c([nH]c3ccccc23)C1c1cccnc1 (configuration not stated)" study_system="786-0 renal" comparison_symbol== readout_number=44.3
molecule=O=C1/C=C/[C@@H](O)[C@@H]2C[C@@H](O)C[C@H]2/C=C/CCC[C@H](CCc2ccccc2)O1 study_system="786-0 renal" comparison_symbol== readout_number=0.0453
molecule=Cc1c(C(=O)O)n2c(C)nnc2c2ccccc12 study_system="786-0 renal" comparison_symbol=> readout_number=100
molecule=CC(=O)N1CCC(Nc2ncc3cc(Oc4ccc(F)cc4F)c(=O)n(C)c3n2)CC1 study_system="786-0 renal" comparison_symbol=> readout_number=25
molecule="COC(=O)/C=C\\[C@H]1[C@H](C)N1S(=O)(=O)c1ccc(C)cc1 (some centres not stated)" study_system="786-0 renal" comparison_symbol=> readout_number=100
molecule=O=[N+]([O-])c1nccn1COCCO study_system="786-0 renal" comparison_symbol=> readout_number=100
